- Assay procedure: RP, Waters ACQUITY UPLC BEH C18, 100 × 2.1 mm, 1.7 µm, 65 °C, 0.4 mL/min, estimated dead time 0.55 min; A: water + 0.1% formic acid, pH 3; B: 80% acetonitrile + 20% acetone + 0.1% formic acid, pH 3; gradient (min/%B) 0/0 5/100 5.5/0 6/0
- Recorded conditions: stereoisomer not certain
Where a name gives a salt, the structure may show the parent alone.
Value kind: LC retention time
Field note: include the unit after the figure.

See these solved cases before continuing.
[
  {
    "Compound": "O=C(O)CC(O)c1ccccc1 (stereo unspecified) [3-hydroxy-3-phenylpropionic acid]",
    "Observed": "2.06 min"
  },
  {
    "Compound": "COc1cc(/C=C/C(=O)O)ccc1O [Ferulic acid]",
    "Observed": "2.17 min"
  },
  {
    "Compound": "COc1cc(C=O)cc(OC)c1O [Syringaldehyde]",
    "Observed": "2.11 min"
  },
  {
    "Compound": "C=C1CCC(O)CC1=CC=C1CCCC2(C)C1CCC2C(C)C=CC(C)C(C)(C)O (stereo unspecified) [25-Hydroxyvitamin-D2]",
    "Observed": "5.07 min"
  },
  {
    "Compound": "O=c1c(-c2ccc(O)cc2)coc2cc(O)cc(O)c12 [Genistein]",
    "Observed": "2.84 min"
  }
]

stdin: Recorded LC retention time for COc1cc(C(O)C(=O)O)ccc1O (stereo unspecified) [Vanillylmandelic acid] , please?
stdout: 1.42 min

stdin: Consider the compound Cc1cc(C(=O)O)ccc1O [4-Hydroxy-3-methylbenzoic acid] and give its measured LC retention time.
stdout: 2.03 min

stdin: // query LC retention time value for entry COc1cc(CC(=O)O)ccc1OS(=O)(=O)O [Homovanillic acid sulfate]
stdout: 1.45 min

stdin: Fill in the blank: the reported LC retention time of CC12CCc3occc3C1CCC13CC(CCC12)C(O)(CO)C3 (stereo unspecified) [Cafestol] is ____.
stdout: 3.19 min

stdin: Name the recorded LC retention time for Cn1c(=O)c2c(ncn2C)n(C)c1=O [Caffeine] .
stdout: 1.67 min

stdin: What value of measured LC retention time is listed for O=C1CC(c2ccc(O)c(O)c2)Oc2cc(O)cc(O)c21 (stereo unspecified) [Eriodictyol] ?
stdout: 2.59 min

stdin: Name the reported LC retention time value associated with the compound O=C(O)/C=C/c1cccc(O)c1 [m-Coumaric acid]
stdout: 2.14 min

---

- Assay procedure: RP, Waters ACQUITY UPLC BEH C18, 100 × 2.1 mm, 1.7 µm, 65 °C, 0.4 mL/min, estimated dead time 0.55 min; A: water + 0.1% formic acid, pH 3; B: 80% acetonitrile + 20% acetone + 0.1% formic acid, pH 3; gradient (min/%B) 0/0 5/100 5.5/0 6/0
- Recorded conditions: stereoisomer not certain
Value kind: LC retention time (min)
# unit: min | format: bare number

Reference set, count: 3
[
  {
    "Compound": "CC(C)c1cc2c(c(O)c1O)C13CCCC(C)(C)C1CC2OC3=O (centres undefined)",
    "Unit tag": "min",
    "LC retention time": 4.02
  },
  {
    "Compound": "O=C(O)C=Cc1ccccc1 [Cinnamic acid-trans]",
    "Unit tag": "min",
    "LC retention time": 2.79
  },
  {
    "Compound": "Oc1ccc(C=Cc2cc(O)cc(O)c2)cc1",
    "Unit tag": "min",
    "LC retention time": 2.48
  }
]

stdin: Entry under review: CC12C=Cc3occc3C1CCC13CC(CCC12)C(O)(CO)C3 (centres undefined) . Reported LC retention time?
stdout: 3.73

---

- Assay procedure: RP, Waters ACQUITY UPLC BEH Shield RP18, 150 × 2.1 mm, 1.7 µm, 40 °C, 0.4 mL/min, estimated dead time 0.83 min; A: water + 0.1% formic acid, pH 3; B: acetonitrile + 0.1% formic acid, pH 3; gradient (min/%B) 0/0 30/50 31/100 37/100 37.1/0
- Recorded conditions: stereoisomer not certain
Reported values of LC retention time for individual entries
Number in min, nothing else.

Solved entries:
[
  {
    "Molecule": "C=C1C(=O)OC2C3C(COC(=O)C(=O)O)=CC(=O)C3=C(C)CC(O)C12 (stereo not drawn) [lactucin-15-oxalate]",
    "LC retention time [min]": 10.4
  },
  {
    "Molecule": "CC1=C2C(=O)C=C(CO)C2C2OC(=O)C(C)C2CC1 (stereo not drawn) [Dihydro-8-deoxylactucin]",
    "LC retention time [min]": 14.5
  },
  {
    "Molecule": "C[N+]1(C)CCCC1C(=O)[O-] (stereo not drawn) [Stachydrine]",
    "LC retention time [min]": 1.06
  },
  {
    "Molecule": "COc1ccc(C2CC(=O)c3c(O)cc(OC4OC(COC5OC(C)C(O)C(O)C5O)C(O)C(O)C4O)cc3O2)cc1O (stereo not drawn)",
    "LC retention time [min]": 13
  },
  {
    "Molecule": "O=C(O)c1ccccc1O",
    "LC retention time [min]": 12.8
  }
]

stdin: LC retention time for O=S(=O)(O)Oc1ccccc1O [Catechol O-sulfate] ?
stdout: 7.99

stdin: Requested read-out: LC retention time. Entry: C=C1C(=O)OC2C1CCC(C)=C1C(=O)C=C(COC(=O)C(=O)O)C12 (stereo not drawn) [8-deoxylactucin-15-oxalate]
stdout: 14.5

stdin: Look up LC retention time for this molecule: O=C(C=Cc1ccc(O)c(O)c1)OC(Cc1ccc(O)c(O)c1)C(=O)O (stereo not drawn)
stdout: 14.6

---

- Assay procedure: RP, Phenomenex Synergi Hydro-RP, 250 × 2 mm, 4 µm, 25 °C, 0.2 mL/min, estimated dead time 2.5 min; A: water + 0.1% formic acid, pH 3; B: acetonitrile + 0.1% formic acid, pH 3; gradient (min/%B) 0/0.5 7/0.5 12/12.5 25/16.3 47/35 48/65 50/65 50.1/0.5
- Recorded conditions: stereoisomer not certain
Reported LC retention time by item:
# number only, unit min dropped from output

Field: example entries. Status: answers known.
[
  {
    "Compound": "O=C(O)C=Cc1ccccc1O [o-Coumaric acid]",
    "Value kind": "LC retention time",
    "Unit tag": "min",
    "Observed": 37.5
  },
  {
    "Compound": "COc1cc(C=CC(=O)O)cc(OC)c1O [Sinapic acid]",
    "Value kind": "LC retention time",
    "Unit tag": "min",
    "Observed": 33
  },
  {
    "Compound": "O=C(O)CNCc1ccccc1O [salicylglycine]",
    "Value kind": "LC retention time",
    "Unit tag": "min",
    "Observed": 27.4
  },
  {
    "Compound": "O=C(C=Cc1ccc(O)c(O)c1)OC(Cc1ccc(O)c(O)c1)C(=O)O (stereo unspecified) [Rosmarinic acid]",
    "Value kind": "LC retention time",
    "Unit tag": "min",
    "Observed": 39.2
  },
  {
    "Compound": "O=C(O)C(O)Cc1ccccc1 (stereo unspecified) [3-Phenyllactic acid]",
    "Value kind": "LC retention time",
    "Unit tag": "min",
    "Observed": 27.2
  }
]

stdin: Given the compound O=C(O)C=Cc1ccccc1 [Cinnamic acid-trans] , what is its reported LC retention time?
stdout: 46.7

stdin: Given the entry COc1cc(CCC(=O)O)ccc1O [Hydroferulic acid] , report its measured LC retention time.
stdout: 28.5

stdin: So what's the measured LC retention time for this one? O=C(O)/C=C/c1cccc(O)c1 [m-Coumaric acid]
stdout: 33.9

stdin: Recorded LC retention time for O=C(O)c1cccnc1 [Niacin] , please?
stdout: 5.51

stdin: Record request: LC retention time value, item COc1cccc(C(=O)O)c1 [m-Anisic acid]
stdout: 40.2

stdin: Quick check: LC retention time of COc1ccc(C(=O)O)cc1 [p-anisic acid] ?
stdout: 39.1

---

- Assay procedure: RP, Waters ACQUITY UPLC HSS T3, 100 × 2.1 mm, 1.8 µm, 30 °C, 0.4 mL/min, estimated dead time 0.55 min; A: water + 0.1% formic acid, pH 3; B: acetonitrile + 0.1% formic acid, pH 3; gradient (min/%B) 0/0 2/0 15/100 22/100 22.1/0 26/0
- Recorded conditions: stereoisomer not certain
Value kind: LC retention time
# include the unit after the value

[
  {
    "Compound": "O=c1c(OS(=O)(=O)O)c(-c2ccc(O)c(O)c2)oc2cc(O)cc(O)c12 [Quercetin 3-O-sulfate]",
    "Observed": "10.5 min"
  },
  {
    "Compound": "O=C(O)C1(O)CC(O)C(O)C(O)C1 (stereo not drawn) [Quinic acid]",
    "Observed": "1.05 min"
  },
  {
    "Compound": "O=C(O)CCCCc1ccc(O)c(O)c1 [5-(3,4 dihydroxyphenyl)valeric acid]",
    "Observed": "9.86 min"
  },
  {
    "Compound": "O=c1c(O)c(-c2ccc(O)c(O)c2)oc2cc(O)cc(O)c12 [Quercetin]",
    "Observed": "11 min"
  },
  {
    "Compound": "O=C(CCc1ccc(O)cc1)c1c(O)cc(O)cc1OC1OC(CO)C(O)C(O)C1O (stereo not drawn) [Phloridzin]",
    "Observed": "9.96 min"
  }
]

stdin: State the recorded LC retention time for this entry: Cn1c(=O)[nH]c2ncn(C)c2c1=O [Paraxanthine]
stdout: 7.53 min

stdin: Which LC retention time is reported for this compound? OCC(Cc1cccc(O)c1)C(CO)Cc1cccc(O)c1 (stereo not drawn) [Enterodiol]
stdout: 10.6 min

stdin: So what's the measured LC retention time for this one? COc1ccc(C2CC(=O)c3c(O)cc(OC4OC(COC5OC(C)C(O)C(O)C5O)C(O)C(O)C4O)cc3O2)cc1O (stereo not drawn) [Hesperidin]
stdout: 9.62 min
